Collected growth inhibition (GI) values appear next to each entry.
tested on: Vero; assay: Antiproliferative activity against African green monkey Vero cells at 50 ug/ml after 24 hrs by BrdUrd incorporation assay; assay type: cell-based; settings: chlorocebus sabaeus
READOUT LABEL: growth inhibition (GI) (%)

CHEMICAL STRING	READOUT LABEL	RESULT VALUE
O=c1c(-c2cccs2)nnc2n1CCN2c1ccc(Cl)c(Cl)c1	growth inhibition (GI)	25
Cc1ccccc1N1CCn2c1nnc(-c1cccs1)c2=O	growth inhibition (GI)	25
Cc1cccc(N2CCn3c2nnc(-c2cccs2)c3=O)c1C	growth inhibition (GI)	25
O=c1c(-c2cccs2)nnc2n1CCN2c1ccccc1Cl	growth inhibition (GI)	50
O=c1c(-c2cccs2)nnc2n1CCN2c1ccc(Cl)cc1	growth inhibition (GI)	25
COc1ccccc1N1CCn2c1nnc(-c1cccs1)c2=O	growth inhibition (GI)	50
